target: T1, soluble human ILT4-ECD (human, UniProt Q8N423 22-460); test: SPR (Biacore) as described in Example 3
T1 construct: also called LILRB2 extracellular domain
T1 sequence (Q8N423 other isoform, or with tags, fused parts or gaps): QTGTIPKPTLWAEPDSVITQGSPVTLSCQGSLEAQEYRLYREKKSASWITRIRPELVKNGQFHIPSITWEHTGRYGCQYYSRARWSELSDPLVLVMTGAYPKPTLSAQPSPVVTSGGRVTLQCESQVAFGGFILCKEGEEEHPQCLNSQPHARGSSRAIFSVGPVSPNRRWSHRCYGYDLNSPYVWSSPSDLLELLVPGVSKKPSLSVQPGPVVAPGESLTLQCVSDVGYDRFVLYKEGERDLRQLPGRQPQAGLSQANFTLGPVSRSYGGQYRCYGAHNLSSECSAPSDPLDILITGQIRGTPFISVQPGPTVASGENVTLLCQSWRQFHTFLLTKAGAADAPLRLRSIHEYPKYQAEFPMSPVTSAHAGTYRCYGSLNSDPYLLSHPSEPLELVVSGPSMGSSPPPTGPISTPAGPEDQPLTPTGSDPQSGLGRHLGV
pKd: −log10 of the molar value.
MEASURED_PARAMETER: pKd

binder="humanized anti-ILT2/ILT4 antibody Hz47H6.v2 (antibody, human IgG1, kappa, N297G, V domains shown) VH: QVQLVQSGAEVKKPGASVKVSCKASGYTFTDYYMNWVRQAPGQRLEWIGDFNPNNAGTTYNQKFEGRVTITVDKSASTAYMELSSLRSEDTAVYYCARGRFYYGSLYSFDYWGQGTLVTVSS VL: DIQMTQSPSSLSASVGDRVTITCRASGNIHNYLAWYQQKPGKAPKLLIYNAKTLADGVPSRFSGSGSGTDFTLTISSLQPEDFATYYCQHFWTSITFGPGTKVDIKR" measured_parameter=pKd quantitative_readout=8.70
